- Tested on: CAKI-1 renal
- measurement.notes: NCI-60 one-dose screen, 48 h (100 = growth as untreated, 0 = no growth, -100 = all killed)
- experimental.conditions: 10 µM unless noted
- Method: Growth inhibition of the CAKI-1 human tumor cell line is measured as a screen for anti-cancer activity. Cells are grown in 96 well plates and exposed to the test compound for 48 hours. Compounds are tested at a single concentration, which is 10^-5 M for most compounds. The reported endpoint is percent growth (GI% or GIPRCNT), where numbers from 0 - 100% represent growth inhibition, and numbers from -100% - 0 represent cell death. For example, a value of 40 represents 60% growth inhibition. […]
This is part of a sample that, as a whole, favours compounds with a hit. Of some 83,000 tested, about 20% had one in any assay. Activity calls are given as the source filed them. How the source made its calls: active means growth percent below 10; inactive means the rest.
outcome.measure: growth

For orientation, consider the following solved cases.
> print(dat)
                                   molecule  assay.target  experimental.value
1  CN(C)C[C@@H]1CCn2cc(c3ccccc32)C2=C(C(=O)NC2=O)c2cn(c3ccccc23)CCO1  CAKI-1 renal     -3.96% (active)
2      COc1cc2nc(Nc3cccc(Cl)c3)nc(N)c2cc1OC  CAKI-1 renal     146% (inactive)

Exercise: Value wanted: growth (CAKI-1 renal) of entry `CCc1nc2cc(/C=C/C(=O)NO)ccc2c(=O)n1CCc1ccc(OC)cc1`
Solution: 13.4% (inactive)

Exercise: Thanks! And `Cc1cc(Nc2ncc(Cl)c(Nc3ccccc3S(=O)(=O)C(C)C)n2)c(OC(C)C)cc1C1CCNCC1` ?
Solution: -99.5% (active)

Exercise: Thanks! And `C#Cc1cccc(Nc2ncnc3cc(OCCOC)c(OCCOC)cc23)c1` ?
Solution: 6.29% (active)

Exercise: Thanks! And `COc1ccc(-n2c(=O)c3ccccc3n(Cc3ccc(C(=O)NO)cc3)c2=O)cc1` ?
Solution: 64.9% (inactive)

Exercise: Thanks! And `Nc1nc(Nc2ccccc2)c(C=Nc2ccccc2)c(=O)[nH]1` ?
Solution: 68% (inactive)

Exercise: Thanks! And `COc1cc2nccc(Oc3ccc(NC(=O)C4(C(=O)Nc5ccc(F)cc5)CC4)cc3)c2cc1OC` ?
Solution: -14.9% (active)
